test system: NCI/ADR-RES ovarian; experiment: NCI tumour cell line growth inhibition, 48 h
Item-by-item account of GI50

[
  {
    "MOLECULE": "Oc1ccc2cc(Br)ccc2c1-c1c(O)ccc2cc(Br)ccc12",
    "GI50": "2970 nM"
  },
  {
    "MOLECULE": "CCN(CC)CCCC(C)Nc1cnc(C(=O)Nc2ccc(Cl)c3cccnc23)cn1 (stereo not given)",
    "GI50": "2550 nM"
  },
  {
    "MOLECULE": "COc1cc(NS(C)(=O)=O)ccc1Nc1c2ccc(Cl)cc2nc2c(OC)cccc12",
    "GI50": "1350 nM"
  },
  {
    "MOLECULE": "CC1=C(C(=O)Nc2ccc(F)c(Cl)c2)C(c2ccccc2Cl)NC(=S)N1 (stereo not given)",
    "GI50": "18000 nM"
  },
  {
    "MOLECULE": "COc1ccccc1OCC(=O)Nc1sc2c(c1C(N)=O)CCC2",
    "GI50": "> 100000 nM"
  }
]

----------
test system: MALME-3M melanoma; experiment: NCI tumour cell line growth inhibition, 48 h
# log10 of TGI per record follows
PARAMETER: log10 of TGI (log10 of the value in µM)

[
  {
    "MOLECULE": "CC(C)/C(Cl)=N\\OC(=O)Nc1cccc(F)c1",
    "PARAMETER": "log10 of TGI",
    "MEASUREMENT": 1.16
  },
  {
    "MOLECULE": "CC(=O)N1N=C2/C(=C/c3ccccc3)CC(C)CC2C1c1ccccc1 (stereo not drawn)",
    "PARAMETER": "log10 of TGI",
    "MEASUREMENT": 1.57
  },
  {
    "MOLECULE": "C[n+]1c(/C=C\\c2ccc(Cl)cc2)ccc2ccccc21",
    "PARAMETER": "log10 of TGI",
    "MEASUREMENT": 1.57
  },
  {
    "MOLECULE": "O=C1/C(=C\\c2ccc(Cl)cc2Cl)Sc2scc(-c3cccc([N+](=O)[O-])c3)[n+]21",
    "PARAMETER": "log10 of TGI",
    "MEASUREMENT": 1.36
  },
  {
    "MOLECULE": "CC1=C[C@H]2c3c(c(O)c(O)c4oc5c(C)cccc5c(=O)c34)[C@H](c3cc(O)c(O)c4oc5c(C)cccc5c(=O)c34)[C@H]2C(C)(C)C1",
    "PARAMETER": "log10 of TGI",
    "MEASUREMENT": 1.03
  },
  {
    "MOLECULE": "CC[C@@H](C(=O)[C@@H](C)[C@@H](O)[C@H](C)[C@@H]1O[C@@H]([C@@H](CC)C(=O)O)CC[C@@H]1C)C1O[C@]2(C=CC(=O)[C@]3(CC[C@@](C)([C@H]4CC[C@](O)(CC)[C@H](C)O4)O3)O2)[C@H](C)C[C@@H]1C (stereo partly drawn)",
    "PARAMETER": "log10 of TGI",
    "MEASUREMENT": -0.11
  },
  {
    "MOLECULE": "O=c1c2cccc(Cl)c2sc2c(NCCCNCCO)nc3ccccc3c12",
    "PARAMETER": "log10 of TGI",
    "MEASUREMENT": 0.50
  },
  {
    "MOLECULE": "COc1ccc2c(c1)C(=O)/C(=C/c1cccc(OCC(=O)Nc3nc4c(s3)CCCC4)c1)O2",
    "PARAMETER": "log10 of TGI",
    "MEASUREMENT": 0.46
  },
  {
    "MOLECULE": "Cn1cc(C2=C(c3cccc4ccccc34)C(=O)NC2=O)c2ccccc21",
    "PARAMETER": "log10 of TGI",
    "MEASUREMENT": 1.38
  },
  {
    "MOLECULE": "Cn1cncc1[C@@](N)(c1ccc(Cl)cc1)c1ccc2c(c1)c(-c1cccc(Cl)c1)cc(=O)n2C",
    "PARAMETER": "log10 of TGI",
    "MEASUREMENT": 1.08
  },
  {
    "MOLECULE": "O=C(Nc1ccccc1O)c1cccc(NC2=C(Cl)C(=O)N(Cc3ccccc3)C2=O)c1",
    "PARAMETER": "log10 of TGI",
    "MEASUREMENT": 0.96
  },
  {
    "MOLECULE": "COc1ccc(N(CC(=O)NCCC[Te]c2ccccc2)C(=O)c2ccccc2)cc1",
    "PARAMETER": "log10 of TGI",
    "MEASUREMENT": 1.54
  },
  {
    "MOLECULE": "CC1(c2ccc(F)cc2)CC(c2ccc(F)cc2)=C(C#N)C(=C(C#N)C#N)N1 (stereo not drawn)",
    "PARAMETER": "log10 of TGI",
    "MEASUREMENT": 1.57
  },
  {
    "MOLECULE": "O=C1/C(=C/c2cccnc2)C(n2cccc2)c2c(Br)sc(Br)c21 (stereo not drawn)",
    "PARAMETER": "log10 of TGI",
    "MEASUREMENT": 1.03
  },
  {
    "MOLECULE": "Cc1ccc2c(c1)C(=O)/C(=C\\c1ccccc1)CCS2(=O)=O",
    "PARAMETER": "log10 of TGI",
    "MEASUREMENT": 1.56
  },
  {
    "MOLECULE": "CCOC(=O)c1c(N)nn2c1cc1cccccc12",
    "PARAMETER": "log10 of TGI",
    "MEASUREMENT": 1.83
  },
  {
    "MOLECULE": "Cn1ccnc1C(=O)/C=C/c1ccc(C(=O)Nc2ccc(Cl)cc2)cc1",
    "PARAMETER": "log10 of TGI",
    "MEASUREMENT": 1.09
  },
  {
    "MOLECULE": "C/C=C(\\C)C(=O)N[C@H]1CC[C@]2(C)C3CC[C@@]4(C)C(CC[C@@H]4C(C)N(C)C)C3CCC2[C@H]1OC(C)=O (stereo partly drawn)",
    "PARAMETER": "log10 of TGI",
    "MEASUREMENT": 0.57
  },
  {
    "MOLECULE": "C=C1C(=O)O[C@@H]2C[C@@]3(C)CCC[C@H](C)C3=C[C@H]12",
    "PARAMETER": "log10 of TGI",
    "MEASUREMENT": 1.20
  }
]

----------
Catalogue of TGI values
test system: A549 NSCLC; test: NCI tumour cell line growth inhibition, 48 h
PARAMETER: TGI

[
  {
    "COMPOUND": "C=C1C(=O)O[C@@H]2[C@H]1C[C@@H](O)[C@H](C)[C@@](O)(C(=O)/C=C/C)[C@H]2OC(=O)C(C)CC (some centres undefined)",
    "PARAMETER": "TGI",
    "MEASUREMENT": "33 µM"
  },
  {
    "COMPOUND": "N#Cc1c(-c2ccc(Cl)cc2)cc(-c2ccc(Nc3ccnc4cc(C(F)(F)F)ccc34)cc2)[nH]c1=O",
    "PARAMETER": "TGI",
    "MEASUREMENT": "> 100 µM"
  },
  {
    "COMPOUND": "O=C(O)CN1CCNCCN(CP(=O)(O)O)CC1",
    "PARAMETER": "TGI",
    "MEASUREMENT": "> 100 µM"
  },
  {
    "COMPOUND": "Cc1cc(NC(=S)Nc2ccccc2)c(NC(=S)Nc2ccccc2)cc1C",
    "PARAMETER": "TGI",
    "MEASUREMENT": "> 100 µM"
  },
  {
    "COMPOUND": "CC1=CC(=NC(=O)CBr)C=C/C1=N\\S(=O)(=O)c1ccccc1",
    "PARAMETER": "TGI",
    "MEASUREMENT": "34.8 µM"
  },
  {
    "COMPOUND": "COc1cccc(C2c3cc4c(cc3OC(C)(O)C2C)OCO4)c1O (centres undefined)",
    "PARAMETER": "TGI",
    "MEASUREMENT": "66.6 µM"
  },
  {
    "COMPOUND": "O=C(Nc1ccccc1O)c1cccc(NC2=C(Cl)C(=O)N(Cc3ccccc3)C2=O)c1",
    "PARAMETER": "TGI",
    "MEASUREMENT": "24.8 µM"
  },
  {
    "COMPOUND": "CSc1c(C(=O)Nc2ccc(Cl)cc2)c(N)nn1-c1ccccc1",
    "PARAMETER": "TGI",
    "MEASUREMENT": "> 100 µM"
  },
  {
    "COMPOUND": "O=S1(=O)OCCOS(=O)(=O)C1I",
    "PARAMETER": "TGI",
    "MEASUREMENT": "> 100 µM"
  },
  {
    "COMPOUND": "CC(=O)N1c2ccccc2C23CCN(C)CC4C(C)OCC(C4CC2=O)C13 (centres undefined)",
    "PARAMETER": "TGI",
    "MEASUREMENT": "> 100 µM"
  },
  {
    "COMPOUND": "COC(=O)CCCN(C)c1n[nH]c(N)n1",
    "PARAMETER": "TGI",
    "MEASUREMENT": "> 100 µM"
  },
  {
    "COMPOUND": "C=C1C(=O)O[C@@H]2C[C@@]3(C)CCC[C@H](C)C3=C[C@H]12",
    "PARAMETER": "TGI",
    "MEASUREMENT": "31 µM"
  },
  {
    "COMPOUND": "N#C/C(=C\\c1ccc(-c2ccc(Cl)cc2)o1)C(=O)Nc1ncc(Cc2ccc(Cl)cc2)s1",
    "PARAMETER": "TGI",
    "MEASUREMENT": "3.05 µM"
  },
  {
    "COMPOUND": "CCCN(CCCCC(NC(C)=O)C(=O)NCc1ccccc1)C(=O)N(C)N=O (centres undefined)",
    "PARAMETER": "TGI",
    "MEASUREMENT": "> 100 µM"
  },
  {
    "COMPOUND": "CS(=O)(=O)NNS(=O)(=O)c1cccc([N+](=O)[O-])c1",
    "PARAMETER": "TGI",
    "MEASUREMENT": "> 100 µM"
  },
  {
    "COMPOUND": "Cc1ccc([N+](=O)[O-])c2c(NCCNC(=O)Cn3ccnc3[N+](=O)[O-])ccnc12",
    "PARAMETER": "TGI",
    "MEASUREMENT": "> 100 µM"
  },
  {
    "COMPOUND": "COc1ccc2c(c1)c(=O)c1ccccc1n2/C=C/C(=O)O",
    "PARAMETER": "TGI",
    "MEASUREMENT": "> 100 µM"
  },
  {
    "COMPOUND": "CC[C@H](C)[C@H]1NC(=O)[C@@H](N[C@](C)(O)[C@@H](N)CC(C)C)[C@@H](C)OC(=O)[C@H](Cc2ccc(OC)cc2)N(C)C(=O)[C@@H]2CCCN2C(=O)[C@H](CC(C)C)NC(=O)[C@@H](C)C(=O)[C@H](C(C)C)OC(=O)C[C@@H]1O",
    "PARAMETER": "TGI",
    "MEASUREMENT": "0.47 µM"
  },
  {
    "COMPOUND": "Cc1ccc(NC(=O)CCC(CC(=O)C(C)(C)C)=NNC(=O)C(=O)NN)cc1C",
    "PARAMETER": "TGI",
    "MEASUREMENT": "> 100 µM"
  }
]

Numbers sourced from PubChem BioAssay (NCI).
